Taken from the Human Domainome abundance scans (Beltran et al. 2025).

abundance fitness values, listed per item
B1: Zinc finger homeobox protein 3, residues 2643 to 2698; numbered along this chain, Q15911 (parent)
chain: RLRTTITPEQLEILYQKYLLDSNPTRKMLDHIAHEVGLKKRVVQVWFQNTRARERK

Variants of: B1
EXPERIMENT SUMMARY: abundance fitness (aPCA) (normalised: wild type 0, dead -1); higher = more abundant; growth selection in yeast, the domain comes from the species named
CONDITION DESCRIPTION: Homo sapiens
Write the value as a bare number.

Q16S = -0.213

Inquiry: Look up abundance fitness for this variant: R55T
Reply text: 0.479

Inquiry: Look up abundance fitness for this variant: P24G
Reply text: -0.857

Inquiry: Look up abundance fitness for this variant: R3Y
Reply text: 0.006

Inquiry: Look up abundance fitness for this variant: P8V
Reply text: 0.544

Inquiry: Look up abundance fitness for this variant: P8W
Reply text: 0.193

Inquiry: Look up abundance fitness for this variant: R53N
Reply text: 0.172

Inquiry: Look up abundance fitness for this variant: E35G
Reply text: -0.487

Inquiry: Look up abundance fitness for this variant: L19C
Reply text: -0.032

Inquiry: Look up abundance fitness for this variant: I32V
Reply text: -0.078

Inquiry: Look up abundance fitness for this variant: P8I
Reply text: 0.993
